# reported ΔTm; entries follow
system: Calf thymus DNA; assay: Binding affinity to calf thymus DNA assessed as change in melting temperature at 0.3 compound to ds-polynucleotide ratio by spectrophotometric method; type: nucleic-acid assay; conditions: Bos taurus
Output spec: scalar in °C, unitless text.

molecule_smiles=Cl.Cl.Clc1ccc2c(Oc3ccc(C4=NCCN4)cc3)ccnc2c1 observation_type=ΔTm recorded_value=2.67

Field ΔTm (Calf thymus DNA), entry Cl.Cl.Cl.N=C(N)c1ccc2nc(-c3ccc(Oc4ccnc5cc(Cl)ccc45)cc3)[nH]c2c1 : 2.84

CC(C)CNC(=N)c1ccc(Oc2ccnc3cc(Cl)ccc23)cc1.Cl.Cl.Cl on Calf thymus DNA gives ΔTm = 1.97

Form: item Cl.Cl.Clc1ccc2c(Oc3ccc(-c4nc5ccc(C6=NCCCN6)cc5[nH]4)cc3)ccnc2c1 ; test system Calf thymus DNA; ΔTm: 3.31

---

assay: Binding affinity to polyA-polyU (unknown origin) assessed as change in melting temperature at 0.1 compound to ds-polynucleotide ratio by spectrophotometric method
Lab note - cut at 2 °C for ΔTm: 1 if strictly below, 0 if not.

Look over these answered cases.
molecule_smiles=Cl.Cl.N=C(N)c1ccc(Oc2ccnc3cc(Cl)ccc23)cc1 qualitative_label=1
molecule_smiles=CC(C)CNC(=N)c1ccc2nc(-c3ccc(Oc4ccnc5cc(Cl)ccc45)cc3)[nH]c2c1.Cl.Cl.Cl qualitative_label=1

Determine if Cl.Cl.Cl.Clc1ccc2c(NCCOc3ccc(-c4nc5ccc(C6=NCCN6)cc5[nH]4)cc3)ccnc2c1 shows ΔTm strictly lower than 2 °C. 0

I'd appreciate it if you could check whether CC(C)CNC(=N)c1ccc(Oc2ccnc3cc(Cl)ccc23)cc1.Cl.Cl.Cl has ΔTm smaller than 2 °C. 1

For Cl.Cl.N=C(NC1CCCC1)c1ccc2nc(-c3ccc(Oc4ccnc5cc(Cl)ccc45)cc3)[nH]c2c1 , is the recorded ΔTm below the cut-off of 2 °C? 1

Report whether reported ΔTm is lower than 2 °C (strictly) for Cl.Cl.Cl.N=C(NC1CCCC1)c1ccc(Oc2ccnc3cc(Cl)ccc23)cc1 1

Hi there! Is ΔTm for Cl.Cl.Clc1ccc2c(Oc3ccc(-c4nc5ccc(C6=NCCCN6)cc5[nH]4)cc3)ccnc2c1 below 2 °C, do you know? 0

---

test system: Calf thymus DNA; test: Binding affinity to calf thymus DNA assessed as change in melting temperature at 0.3 compound to ds-polynucleotide ratio by spectrophotometric method; format: nucleic-acid assay; settings: Bos taurus
The compounds listed here are annotated with their ΔTm.
The response must be a number in °C with no trailing unit.

// worked examples, ΔTm included
molecule_smiles=N#Cc1ccc2nc(-c3ccc(OCCNc4ccnc5cc(Cl)ccc45)cc3)[nH]c2c1 recorded_value=2.58
molecule_smiles=CC(C)NC(=N)c1ccc(Oc2ccnc3cc(Cl)ccc23)cc1.Cl.Cl.Cl recorded_value=2.28

Lab entry: Calf thymus DNA assay, compound Cl.Cl.Cl.N=C(NC1CCCC1)c1ccc(Oc2ccnc3cc(Cl)ccc23)cc1 , ΔTm = 1.43
